Source: the supplement of paper PMC11196671

# procedure_text: terephthalic acid (TPA) released, HPLC; higher = more TPA released; extreme values may be limits of the assay
# stated_conditions: PET substrate: cryPow; 70 °C; pH 6.5; 24 h
Please mark class 1 if the recorded terephthalic acid is equal to or greater than 0.09 mM, and class 0 if it falls below.

{"biopolymer_sequence": "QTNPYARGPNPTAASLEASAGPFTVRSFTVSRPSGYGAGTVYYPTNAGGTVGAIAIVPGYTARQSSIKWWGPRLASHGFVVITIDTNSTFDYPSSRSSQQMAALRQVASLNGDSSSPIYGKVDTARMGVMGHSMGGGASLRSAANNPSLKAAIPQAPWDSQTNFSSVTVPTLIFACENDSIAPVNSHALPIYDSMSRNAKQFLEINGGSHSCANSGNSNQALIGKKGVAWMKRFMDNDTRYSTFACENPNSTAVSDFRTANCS [DuraPETase]", "class_label": "class 0"}
{"biopolymer_sequence": "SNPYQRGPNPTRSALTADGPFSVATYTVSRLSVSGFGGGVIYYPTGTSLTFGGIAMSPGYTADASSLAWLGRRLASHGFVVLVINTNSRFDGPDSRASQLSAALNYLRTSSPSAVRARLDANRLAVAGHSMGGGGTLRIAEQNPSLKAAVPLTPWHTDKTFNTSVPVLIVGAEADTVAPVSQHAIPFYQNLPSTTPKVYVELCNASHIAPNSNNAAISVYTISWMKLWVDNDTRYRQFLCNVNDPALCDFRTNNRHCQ [LCC-ICCG]", "class_label": "class 1"}
{"biopolymer_sequence": "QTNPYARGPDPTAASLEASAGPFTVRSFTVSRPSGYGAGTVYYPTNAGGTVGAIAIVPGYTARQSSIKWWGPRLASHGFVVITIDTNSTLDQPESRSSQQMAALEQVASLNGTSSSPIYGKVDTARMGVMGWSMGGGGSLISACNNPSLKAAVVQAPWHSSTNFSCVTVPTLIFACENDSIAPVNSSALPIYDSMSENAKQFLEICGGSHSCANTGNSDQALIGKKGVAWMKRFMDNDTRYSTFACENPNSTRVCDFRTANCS [Z1-PETase]", "class_label": "class 0"}
{"biopolymer_sequence": "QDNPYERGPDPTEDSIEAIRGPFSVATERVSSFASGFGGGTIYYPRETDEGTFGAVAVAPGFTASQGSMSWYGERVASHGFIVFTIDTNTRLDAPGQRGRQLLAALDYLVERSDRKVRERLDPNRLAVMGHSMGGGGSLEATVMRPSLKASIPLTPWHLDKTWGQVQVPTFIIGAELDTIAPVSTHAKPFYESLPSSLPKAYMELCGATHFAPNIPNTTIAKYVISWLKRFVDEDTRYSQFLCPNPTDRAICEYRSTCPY [Cut190*SS]", "class_label": "class 0"}
{"biopolymer_sequence": "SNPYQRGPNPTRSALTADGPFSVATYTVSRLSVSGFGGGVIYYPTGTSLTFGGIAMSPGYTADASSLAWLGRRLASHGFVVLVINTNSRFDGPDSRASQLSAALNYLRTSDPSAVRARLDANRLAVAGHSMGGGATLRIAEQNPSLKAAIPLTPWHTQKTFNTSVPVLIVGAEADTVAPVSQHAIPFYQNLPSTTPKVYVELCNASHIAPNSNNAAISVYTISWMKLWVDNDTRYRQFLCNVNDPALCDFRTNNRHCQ [LCC-ICCG DAQI]", "class_label": "class 0"}
{"biopolymer_sequence": "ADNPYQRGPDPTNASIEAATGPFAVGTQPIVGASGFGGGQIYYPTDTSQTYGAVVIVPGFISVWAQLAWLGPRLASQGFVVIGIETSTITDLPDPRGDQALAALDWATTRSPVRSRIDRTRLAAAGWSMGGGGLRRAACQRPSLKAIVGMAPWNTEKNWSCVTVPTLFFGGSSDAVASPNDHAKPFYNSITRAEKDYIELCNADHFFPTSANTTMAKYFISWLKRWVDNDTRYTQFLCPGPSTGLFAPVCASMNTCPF [CaPETaseM9]", "class_label": "class 0"}
{"biopolymer_sequence": "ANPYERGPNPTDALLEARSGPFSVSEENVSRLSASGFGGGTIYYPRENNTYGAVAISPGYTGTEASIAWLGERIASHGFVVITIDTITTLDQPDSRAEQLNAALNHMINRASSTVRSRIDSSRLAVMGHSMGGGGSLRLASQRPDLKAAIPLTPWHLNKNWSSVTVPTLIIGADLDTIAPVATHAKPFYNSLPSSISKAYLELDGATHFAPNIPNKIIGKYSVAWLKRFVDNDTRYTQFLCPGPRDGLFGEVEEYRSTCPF [TfCut2]", "class_label": "class 0"}
{"biopolymer_sequence": "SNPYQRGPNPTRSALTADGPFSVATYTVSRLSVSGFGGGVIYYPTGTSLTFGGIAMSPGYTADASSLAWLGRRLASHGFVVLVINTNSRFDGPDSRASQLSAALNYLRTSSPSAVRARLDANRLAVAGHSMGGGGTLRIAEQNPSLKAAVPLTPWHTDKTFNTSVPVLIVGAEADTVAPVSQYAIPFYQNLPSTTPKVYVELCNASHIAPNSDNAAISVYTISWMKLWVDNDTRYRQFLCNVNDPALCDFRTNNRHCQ [LCC-A2]", "class_label": "class 1"}
{"biopolymer_sequence": "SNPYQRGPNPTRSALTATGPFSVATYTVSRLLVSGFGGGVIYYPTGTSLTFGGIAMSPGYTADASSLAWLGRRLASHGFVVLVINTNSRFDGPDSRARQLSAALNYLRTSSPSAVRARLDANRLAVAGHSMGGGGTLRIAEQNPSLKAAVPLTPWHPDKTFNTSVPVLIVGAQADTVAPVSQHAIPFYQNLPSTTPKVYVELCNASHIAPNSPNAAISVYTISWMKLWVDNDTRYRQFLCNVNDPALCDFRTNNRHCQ [LCC-ICCG I6M]", "class_label": "class 0"}
{"biopolymer_sequence": "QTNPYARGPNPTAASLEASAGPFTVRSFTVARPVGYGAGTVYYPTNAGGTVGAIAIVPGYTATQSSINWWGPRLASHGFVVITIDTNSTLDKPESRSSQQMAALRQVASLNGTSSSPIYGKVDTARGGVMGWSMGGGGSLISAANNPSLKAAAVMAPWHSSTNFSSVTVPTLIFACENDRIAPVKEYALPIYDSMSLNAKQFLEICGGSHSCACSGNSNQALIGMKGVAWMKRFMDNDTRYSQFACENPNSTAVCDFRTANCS [HotPETase]", "class_label": "class 1"}
